The entries below come with measured Half-life values attached.
Test: Pseudo three-dimensional hydrolysis test, sample layered on distilled water
Type: physicochemical
Conditions: sample layered on distilled water in a test tube; 20 mls sample layered on 10 mls distilled water in 19 mm test tube
Note: unit h is implicit; provide only the numeric part.

[
  {
    "MOLECULE": "CCCCOB(OCCC)OCCC [n-butyl di-n-propyl borate]",
    "METRIC": "Half-life",
    "RESULT": 6.5
  }
]

Exercise: Fill in: Half-life of CCCCOB(OCCCC)OCCCC [Tri-n-butyl borate] is ___
Key: 89
